test_system: CAv1.2 (Homo sapiens, UniProt Q13936)
Sequence (Q13936 whole entry): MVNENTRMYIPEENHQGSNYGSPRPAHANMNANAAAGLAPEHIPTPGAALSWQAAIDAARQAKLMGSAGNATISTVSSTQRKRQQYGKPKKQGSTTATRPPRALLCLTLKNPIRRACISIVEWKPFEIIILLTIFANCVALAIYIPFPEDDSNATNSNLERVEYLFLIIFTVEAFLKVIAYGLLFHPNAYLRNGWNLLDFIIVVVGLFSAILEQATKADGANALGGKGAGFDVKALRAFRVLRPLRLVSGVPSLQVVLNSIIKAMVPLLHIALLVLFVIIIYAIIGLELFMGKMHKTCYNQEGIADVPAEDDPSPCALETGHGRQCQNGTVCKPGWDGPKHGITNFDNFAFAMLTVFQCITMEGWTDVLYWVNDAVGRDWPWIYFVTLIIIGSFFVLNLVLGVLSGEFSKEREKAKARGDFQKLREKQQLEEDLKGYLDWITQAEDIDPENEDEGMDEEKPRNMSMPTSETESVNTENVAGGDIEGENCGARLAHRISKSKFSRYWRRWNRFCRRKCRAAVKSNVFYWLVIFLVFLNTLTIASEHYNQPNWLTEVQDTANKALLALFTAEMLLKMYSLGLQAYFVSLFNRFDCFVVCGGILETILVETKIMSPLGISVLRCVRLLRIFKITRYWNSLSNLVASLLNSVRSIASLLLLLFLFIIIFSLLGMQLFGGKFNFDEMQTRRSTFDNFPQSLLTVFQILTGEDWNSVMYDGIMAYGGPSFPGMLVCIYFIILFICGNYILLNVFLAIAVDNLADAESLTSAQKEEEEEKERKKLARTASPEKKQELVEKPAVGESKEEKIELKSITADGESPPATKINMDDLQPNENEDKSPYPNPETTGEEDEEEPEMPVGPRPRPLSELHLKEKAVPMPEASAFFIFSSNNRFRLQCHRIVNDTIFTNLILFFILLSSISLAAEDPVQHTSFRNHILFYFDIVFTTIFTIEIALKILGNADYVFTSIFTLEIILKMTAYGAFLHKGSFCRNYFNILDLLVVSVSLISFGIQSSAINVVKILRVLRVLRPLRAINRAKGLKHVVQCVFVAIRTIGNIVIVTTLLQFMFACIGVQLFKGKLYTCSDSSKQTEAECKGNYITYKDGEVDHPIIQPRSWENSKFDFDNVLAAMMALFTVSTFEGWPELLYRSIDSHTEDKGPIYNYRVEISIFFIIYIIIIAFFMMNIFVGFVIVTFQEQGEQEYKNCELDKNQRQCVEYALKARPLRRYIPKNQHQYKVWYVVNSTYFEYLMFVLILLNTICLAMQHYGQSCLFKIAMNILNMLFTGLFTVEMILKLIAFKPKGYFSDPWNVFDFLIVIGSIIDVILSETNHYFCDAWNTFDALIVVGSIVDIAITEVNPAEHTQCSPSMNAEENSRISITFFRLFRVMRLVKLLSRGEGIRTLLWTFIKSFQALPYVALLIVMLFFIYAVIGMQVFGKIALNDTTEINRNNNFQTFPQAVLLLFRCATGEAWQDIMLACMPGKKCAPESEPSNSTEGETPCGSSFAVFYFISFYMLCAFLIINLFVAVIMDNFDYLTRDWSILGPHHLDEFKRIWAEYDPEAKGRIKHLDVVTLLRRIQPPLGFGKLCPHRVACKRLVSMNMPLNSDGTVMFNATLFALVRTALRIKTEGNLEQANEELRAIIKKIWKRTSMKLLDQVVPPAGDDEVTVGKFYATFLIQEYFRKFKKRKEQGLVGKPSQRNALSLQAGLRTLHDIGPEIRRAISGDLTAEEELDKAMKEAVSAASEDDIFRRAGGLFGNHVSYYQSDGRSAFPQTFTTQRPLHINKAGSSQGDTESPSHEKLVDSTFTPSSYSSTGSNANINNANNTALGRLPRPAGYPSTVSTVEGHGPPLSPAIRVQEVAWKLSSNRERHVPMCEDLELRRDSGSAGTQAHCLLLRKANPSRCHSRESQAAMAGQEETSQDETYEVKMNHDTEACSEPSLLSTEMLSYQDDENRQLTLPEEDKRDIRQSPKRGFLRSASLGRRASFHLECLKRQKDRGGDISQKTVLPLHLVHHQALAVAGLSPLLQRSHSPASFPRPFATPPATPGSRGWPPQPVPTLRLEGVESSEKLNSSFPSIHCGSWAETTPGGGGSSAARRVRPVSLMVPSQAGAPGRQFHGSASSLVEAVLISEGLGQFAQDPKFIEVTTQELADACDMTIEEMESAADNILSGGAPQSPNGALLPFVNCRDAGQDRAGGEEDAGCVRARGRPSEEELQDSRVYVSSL
Sequence (P54289 25-1103 partner): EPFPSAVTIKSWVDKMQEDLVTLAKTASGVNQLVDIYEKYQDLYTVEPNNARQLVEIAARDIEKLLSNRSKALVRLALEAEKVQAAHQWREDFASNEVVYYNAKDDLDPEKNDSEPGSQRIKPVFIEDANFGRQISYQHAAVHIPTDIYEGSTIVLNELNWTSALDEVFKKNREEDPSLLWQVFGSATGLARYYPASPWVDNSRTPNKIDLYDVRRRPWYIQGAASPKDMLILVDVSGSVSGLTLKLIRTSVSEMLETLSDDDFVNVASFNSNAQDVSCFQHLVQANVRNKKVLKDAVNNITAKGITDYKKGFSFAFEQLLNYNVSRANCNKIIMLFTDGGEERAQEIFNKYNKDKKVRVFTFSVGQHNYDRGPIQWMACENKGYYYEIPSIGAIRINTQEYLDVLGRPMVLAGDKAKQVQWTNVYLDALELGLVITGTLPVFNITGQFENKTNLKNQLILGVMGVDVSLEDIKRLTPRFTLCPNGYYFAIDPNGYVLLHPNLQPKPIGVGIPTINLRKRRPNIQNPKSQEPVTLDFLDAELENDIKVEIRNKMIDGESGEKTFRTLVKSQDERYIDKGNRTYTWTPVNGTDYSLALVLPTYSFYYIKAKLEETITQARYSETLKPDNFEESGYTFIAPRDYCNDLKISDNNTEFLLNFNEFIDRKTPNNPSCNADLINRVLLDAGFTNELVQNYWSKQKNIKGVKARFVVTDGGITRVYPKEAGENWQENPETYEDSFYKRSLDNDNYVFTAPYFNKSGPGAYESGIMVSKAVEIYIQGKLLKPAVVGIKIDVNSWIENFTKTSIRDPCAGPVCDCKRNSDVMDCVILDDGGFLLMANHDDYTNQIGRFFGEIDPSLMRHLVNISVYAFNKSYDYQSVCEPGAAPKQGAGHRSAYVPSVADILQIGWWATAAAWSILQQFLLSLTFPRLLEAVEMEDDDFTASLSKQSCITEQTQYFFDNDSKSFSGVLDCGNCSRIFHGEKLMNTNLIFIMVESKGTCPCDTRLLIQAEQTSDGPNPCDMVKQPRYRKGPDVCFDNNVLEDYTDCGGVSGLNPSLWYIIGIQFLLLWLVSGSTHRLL
Sequence (Q08289 whole entry partner): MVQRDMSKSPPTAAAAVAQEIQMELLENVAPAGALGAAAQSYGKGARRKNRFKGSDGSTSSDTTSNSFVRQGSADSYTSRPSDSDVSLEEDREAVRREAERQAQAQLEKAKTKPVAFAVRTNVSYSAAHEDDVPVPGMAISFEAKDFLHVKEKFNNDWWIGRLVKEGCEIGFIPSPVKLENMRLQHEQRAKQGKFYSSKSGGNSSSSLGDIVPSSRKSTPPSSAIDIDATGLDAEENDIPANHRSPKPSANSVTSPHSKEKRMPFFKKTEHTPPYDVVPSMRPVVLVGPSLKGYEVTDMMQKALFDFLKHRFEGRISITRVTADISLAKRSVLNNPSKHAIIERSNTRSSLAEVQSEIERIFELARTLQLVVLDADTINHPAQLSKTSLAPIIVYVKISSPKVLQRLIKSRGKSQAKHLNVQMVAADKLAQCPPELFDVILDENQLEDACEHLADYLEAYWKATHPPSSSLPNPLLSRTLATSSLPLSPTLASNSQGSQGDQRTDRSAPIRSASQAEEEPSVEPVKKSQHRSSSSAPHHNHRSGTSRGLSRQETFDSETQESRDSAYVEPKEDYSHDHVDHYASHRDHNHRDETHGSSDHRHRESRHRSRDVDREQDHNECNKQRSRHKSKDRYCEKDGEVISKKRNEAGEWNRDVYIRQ
method_summary: FLIPR data, CAv1.2 channel blocking (Table 6)
Assay type: cell-based
cond: inactivated state, read-out: CAv1.2 IC50 Inact.
Known pIC50 of a selection of compounds
Note on pIC50: it is the negative log10 of concentration, concentration in mol/L.

compound: CC(C)(C[C@H]1C[C@@H](NC(=O)c2ccc(C(F)(F)F)cc2)C1)S(=O)(=O)c1cccc(C(F)(F)F)c1
test_system: CAv1.2 (Homo sapiens, UniProt Q13936)
pIC50: 6.21
//
compound: CC(C)([C@H]1C[C@H](Nc2ccnc(C(F)(F)F)n2)C1)S(=O)(=O)c1cc(F)cc(C(F)(F)F)c1
test_system: CAv1.2 (Homo sapiens, UniProt Q13936)
pIC50: 5.74
//
compound: CC(C)([C@H]1C[C@@H](NC(=O)c2ccc(C(F)(F)F)cc2)C1)S(=O)(=O)c1cccc(C(F)(F)F)c1
test_system: CAv1.2 (Homo sapiens, UniProt Q13936)
pIC50: 5.83
//
compound: CC(C)S(=O)(=O)c1cc(C(F)(F)F)cnc1C(=O)NC[C@H]1C[C@@H](C(C)(C)S(=O)(=O)c2cccc(C(F)(F)F)c2)C1
test_system: CAv1.2 (Homo sapiens, UniProt Q13936)
pIC50: 5.58
//
compound: CC(C)([C@H]1C[C@H](NS(=O)(=O)c2ccc(C(F)(F)F)cc2Cl)C1)S(=O)(=O)c1cc(F)cc(C(F)(F)F)c1
test_system: CAv1.2 (Homo sapiens, UniProt Q13936)
pIC50: 5.81
//
compound: CC(C)([C@H]1C[C@@H](NC(=O)c2ccc(F)c(Cl)c2)C1)S(=O)(=O)c1cccc(OC(F)(F)F)c1
test_system: CAv1.2 (Homo sapiens, UniProt Q13936)
pIC50: 6.16

Enquiry: What value of measured pIC50 is listed for CC(C)([C@H]1C[C@@H](Nc2ccnc(C(F)(F)F)n2)C1)S(=O)(=O)c1cccc(OC(F)(F)F)c1 ?
Return: 5.63
